Biological target: Aurora kinase A (Homo sapiens)
Sequence (whole entry): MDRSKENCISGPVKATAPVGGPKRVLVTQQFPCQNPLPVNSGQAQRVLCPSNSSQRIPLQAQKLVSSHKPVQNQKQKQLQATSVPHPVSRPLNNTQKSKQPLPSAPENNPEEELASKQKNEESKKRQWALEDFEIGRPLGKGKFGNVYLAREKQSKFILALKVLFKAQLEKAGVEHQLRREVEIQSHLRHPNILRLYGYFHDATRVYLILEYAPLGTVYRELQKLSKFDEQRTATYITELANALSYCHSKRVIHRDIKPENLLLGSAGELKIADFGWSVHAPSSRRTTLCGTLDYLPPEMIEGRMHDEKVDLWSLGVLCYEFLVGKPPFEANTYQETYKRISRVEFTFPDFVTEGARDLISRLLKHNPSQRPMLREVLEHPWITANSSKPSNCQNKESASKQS
Experiment: Inhibition of AurA at 30 uM by microfluidic mobility shift assay
Below: a set of entries, each annotated with reported inhibition.
Write the number in % without appending the unit.

Here's what some known entries look like.
Cn1nc(N)c2cnc(-c3ccccc3)cc21 33
Cc1cc2nn(-c3ccccc3)c(N)c2c(N2CCCCC2)n1 10
COc1cccc(-c2cc3c(c(N)nn3C)c(=O)[nH]2)c1 17

Query: Specify reported inhibition for the compound shown: `Cc1cc2[nH]nc(N)c2c(=O)[nH]1`
Reply: 23

Query: Specify reported inhibition for the compound shown: `Cc1cc2c(c(N)nn2C)c(N2CCOCC2)n1`
Reply: 17

Query: Specify reported inhibition for the compound shown: `Cc1cc2c(c(NC(=O)Nc3ccccc3)nn2C)c(=O)[nH]1`
Reply: 10

Query: Specify reported inhibition for the compound shown: `COc1ccc(-c2cc3nn(-c4ccccc4)c(N)c3c(=O)[nH]2)cc1`
Reply: 10

Query: Specify reported inhibition for the compound shown: `Cc1cc2nc(-c3ccccc3)nc(N)c2c(=O)[nH]1`
Reply: 34

These entries and their values trace back to ChEMBL document CHEMBL1811853.
